system: Wolbachia pipientis; assay: Anti-Wolbachia Cell-Based Screen; format: functional; set-up: scale not given: in the data most compounds retested in dose-response had high values; conditions: 5 µM
Hit rate of the full screen: of about 48,000 compounds, about 13,000 (27%) showed an effect of 50% or more. Some of the results follow.

[
  {
    "compound": "COc1ccc(OC)c(C(=O)N(C)Cc2ncc(C)c(OC)c2C)c1",
    "Percent Effect, %": -4.561
  },
  {
    "compound": "COc1cccc(CCCN2CCC(N(C)S(C)(=O)=O)CC2)c1",
    "Percent Effect, %": -2.016
  },
  {
    "compound": "COc1ccccc1C(=O)N(C)Cc1ncc(C)c(OC)c1C",
    "Percent Effect, %": -3.019
  },
  {
    "compound": "COc1c(C)cnc(CN2CCC(N(C)C(=O)C(C)OC)CC2)c1C (centres undefined)",
    "Percent Effect, %": 99.72
  }
]

###

Parameter: Percent Effect. Scope: all listed entries.
test system: Wolbachia pipientis; assay: Anti-Wolbachia Cell-Based Screen; format: functional; set-up: scale not given: in the data most compounds retested in dose-response had high values; conditions: 5 µM
Among all 48,000 compounds or so, about 13,000 (27%) showed an effect of 50% or more. The list shows a part of the results.

[
  {
    "compound": "CS(=O)(=O)c1nccn1CCOc1ccc(F)cc1Cl",
    "Percent Effect (%)": 1.333
  },
  {
    "compound": "CCOCCn1nc(C)cc1C(=O)N1CCCC[C@H](N(C)C)C1",
    "Percent Effect (%)": -3.082
  },
  {
    "compound": "COc1cc2c(cc1-c1nc3c(cnn3C(C)C3CC3)[nH]1)OCO2 (stereo not given)",
    "Percent Effect (%)": -2.531
  },
  {
    "compound": "COc1cc2c(cc1OC)S(=O)(=O)N(Cc1cnn(C)c1)C2=O",
    "Percent Effect (%)": -5.179
  },
  {
    "compound": "CC(=O)Nc1nc(C2CCN(C(=O)Cc3ccccc3)CC2)cs1",
    "Percent Effect (%)": 87.03
  },
  {
    "compound": "CN(C)C(C(=O)NCC1(O)CCCCC1)c1c(F)cccc1F (stereo not given)",
    "Percent Effect (%)": -3.857
  },
  {
    "compound": "CCn1cc(CN(C)S(=O)(=O)c2cc(Cl)ccc2Cl)cn1",
    "Percent Effect (%)": 2.949
  },
  {
    "compound": "Fc1ccc(-n2cccn2)c(CN2CCCCC2CCn2ccnc2)c1 (stereo not given)",
    "Percent Effect (%)": 6.266
  },
  {
    "compound": "CCCc1c(C(=O)N2CCN(c3cnccn3)CC2)cnn1C",
    "Percent Effect (%)": 10.15
  },
  {
    "compound": "CC(=O)Nc1nc(C(=O)N2CCCC(c3cc(C)[nH]n3)C2)cs1 (stereo not given)",
    "Percent Effect (%)": -0.9316
  },
  {
    "compound": "Cc1c(NC(C)C(C)C)cccc1C(=O)NCc1ccnn1C (stereo not given)",
    "Percent Effect (%)": 9.043
  },
  {
    "compound": "O=C(NCC1(O)CCC1)c1c(O)cc(F)cc1F",
    "Percent Effect (%)": 120.5
  },
  {
    "compound": "COCCO[C@H]1CCN(Cc2ccoc2)[C@H]1Cc1cccnc1",
    "Percent Effect (%)": 85.57
  },
  {
    "compound": "Nc1nc(C2CCN(C(=O)c3cncs3)CC2)cs1",
    "Percent Effect (%)": -2.594
  },
  {
    "compound": "CCS(=O)(=O)CCNC(=O)[C@@]12CNC[C@@H]1CN(C1CCCC1)C2",
    "Percent Effect (%)": 17.06
  },
  {
    "compound": "NC(=O)C1CCCN1Cc1cccc(NC(=O)c2ccsc2)c1 (stereo not given)",
    "Percent Effect (%)": 23.54
  },
  {
    "compound": "CCCc1nc(CNCC2CCCN2c2cccnn2)no1 (stereo not given)",
    "Percent Effect (%)": 124.8
  },
  {
    "compound": "CCCOc1cccc(NC(=O)NC2CCc3nc(C)nn3C2)c1 (stereo not given)",
    "Percent Effect (%)": -22.59
  },
  {
    "compound": "Cn1cc(CN2CC[C@@H](NS(C)(=O)=O)[C@@H]2Cc2cccnc2)cn1.O=C(O)C(F)(F)F.O=C(O)C(F)(F)F",
    "Percent Effect (%)": 0.0713
  },
  {
    "compound": "CN(Cc1n[nH]c(=O)n1Cc1ccco1)S(C)(=O)=O",
    "Percent Effect (%)": 13.53
  },
  {
    "compound": "CCN(C)C[C@@H]1CN(Cc2cccc(Cl)c2)C[C@@H]1CO",
    "Percent Effect (%)": -21.33
  },
  {
    "compound": "COCCO[C@@H]1CCN(C(=O)c2ccc[nH]2)[C@H]1Cc1cnn(C)c1",
    "Percent Effect (%)": -18.74
  },
  {
    "compound": "O=C(O)C(F)(F)F.O=C(O)C(F)(F)F.O[C@H]1CCN(Cc2ccoc2)[C@H]1Cc1cccnc1",
    "Percent Effect (%)": -11.6
  },
  {
    "compound": "CC(=O)N1CCC(N2CCOC[C@H]2c2nc(-c3ccncc3)c[nH]2)CC1",
    "Percent Effect (%)": -16.93
  },
  {
    "compound": "CC(C)c1nc(CN(C)C(=O)CNS(=O)(=O)c2cccs2)no1",
    "Percent Effect (%)": -26.42
  },
  {
    "compound": "c1cnnc(N2CCCC2CNCc2nc(C3CC3)no2)c1 (stereo not given)",
    "Percent Effect (%)": 6.175
  },
  {
    "compound": "CCc1c(C(=O)N2CCN(c3ncccn3)CC2)cnn1C(C)(C)C",
    "Percent Effect (%)": 6.599
  },
  {
    "compound": "CN(C)C(C(=O)NCC1(N(C)C)CCOCC1)c1ccccc1F (stereo not given)",
    "Percent Effect (%)": -12.63
  },
  {
    "compound": "NC(=O)CC1CCN(C(=O)c2cnc(-c3ccccc3F)s2)CC1",
    "Percent Effect (%)": 1.886
  },
  {
    "compound": "CC(=O)Nc1nc(C2CCN(C(C)C)CC2)cs1",
    "Percent Effect (%)": 119.6
  }
]

###

Below: a set of entries, each annotated with reported Percent Effect.
test system: Wolbachia pipientis; assay: Anti-Wolbachia Cell-Based Screen; type: functional; set-up: scale not given: in the data most compounds retested in dose-response had high values; settings: 5 µM
Among all 48,000 compounds or so, about 13,000 (27%) showed an effect of 50% or more. The list shows a part of the results.
measure: Percent Effect

[
  {
    "structure_string": "Cc1cc(N(C)CCCn2cccn2)nc(N)n1",
    "measure": "Percent Effect",
    "experimental_value": "93.8%"
  },
  {
    "structure_string": "O=C1CO[C@H]2CN(S(=O)(=O)c3ccccc3)C[C@H]2N1CC1CCCCC1",
    "measure": "Percent Effect",
    "experimental_value": "-1.242%"
  },
  {
    "structure_string": "Cc1cc(C(=O)N2C[C@@H]3[C@@H](CN(C)CCCn4cccn4)[C@@H]3C2)c(C)o1",
    "measure": "Percent Effect",
    "experimental_value": "2.079%"
  }
]
